The origin of these recorded values is PubChem BioAssay (Tox21).

Target of assay: Luciferin 4-monooxygenase (Photinus pyralis) (UniProt P08659)
Sequence (P08659 whole entry, looked up): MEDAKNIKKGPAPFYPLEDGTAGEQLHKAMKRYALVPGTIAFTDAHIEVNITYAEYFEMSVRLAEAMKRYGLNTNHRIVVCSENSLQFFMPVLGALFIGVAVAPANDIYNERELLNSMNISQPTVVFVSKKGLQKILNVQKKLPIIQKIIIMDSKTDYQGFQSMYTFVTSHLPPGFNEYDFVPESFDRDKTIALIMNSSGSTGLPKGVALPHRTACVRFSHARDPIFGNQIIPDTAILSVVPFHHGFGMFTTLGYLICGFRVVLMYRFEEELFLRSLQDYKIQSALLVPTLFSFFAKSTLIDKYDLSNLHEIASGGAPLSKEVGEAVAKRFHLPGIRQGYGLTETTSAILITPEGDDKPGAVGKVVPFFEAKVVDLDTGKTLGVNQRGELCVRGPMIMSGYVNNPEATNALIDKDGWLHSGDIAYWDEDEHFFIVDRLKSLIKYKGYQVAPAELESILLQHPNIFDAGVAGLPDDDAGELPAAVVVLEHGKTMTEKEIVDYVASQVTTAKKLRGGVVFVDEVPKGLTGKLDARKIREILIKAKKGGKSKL
Protocol notes: qHTS assay to identify small molecule inhibitors of firefly luciferase (AID 1224835); further: nearly all actives have a fitted effect of over 25% in size
Condition description: purified P. pyralis luciferase, luminescence inhibition; series mostly up to 115 µM
Results filed as inconclusive are left out. Activity calls are given as the source filed them. The call rests on the fitted dose curve; in most records, active means well fitted inhibition curve with a large enough effect in the repeat runs; inconclusive means weak or mixed curves; inactive means flat fitted curve, though single readings scatter.
Experimental readout: outcome

                                   compound  value_reported
0                 CCCCNS(=O)(=O)c1ccc(C)cc1        inactive
1  COc1ccc2c(c1)c(CC(=O)OC/C=C(\C)CC/C=C(\C)CCC=C(C)C)c(C)n2C(=O)c1ccc(Cl)cc1        inactive
2  CCOC(=O)Cn1cccc1-c1nc(-c2ccc(OC)cc2)c(-c2ccc(OC)cc2)s1        inactive
3  O=C(O)[C@H](O)[C@@H](O)[C@H](O[C@@H]1O[C@H](CO)[C@H](O)[C@H](O)[C@H]1O)[C@H](O)CO        inactive
4  CC(=O)Oc1cc2c(s1)CCN(C(C(=O)C1CC1)c1ccccc1F)C2 (stereo not given)        inactive

====

Protocol notes: A CellTox Green Cytotoxicity Assay to monitor cytotoxicity in HepG2 cells - 32 hour (AID 1224883); further: nearly all actives have a fitted effect of over 50% in size
Condition description: CellTox Green fluorescence; series mostly up to 76.8 µM
Inconclusive results are not listed. Activity calls are given as the source filed them. Calls come from the whole dose curve; as a rule, active = well fitted activation curve with a large enough effect in the repeat runs; inconclusive = weak or mixed curves; inactive = flat fitted curve, though single readings scatter.
Possible outcomes: active, inactive

>>> df
                                    molecule  group_label
 0  COc1ccc2c(c1)c(CC(=O)OC/C=C(\C)CC/C=C(\C)CCC=C(C)C)c(C)n2C(=O)c1ccc(Cl)cc1     inactive
 1  CC(=O)[C@H]1CC[C@H]2[C@@H]3CCC4=CC(=O)CC[C@]4(C)[C@H]3CC[C@]12C       active
 2                 COc1ccc(NC(=O)CC(C)=O)cc1     inactive
 3                                 OC/C=C/CO     inactive
 4              NC(=O)c1cccc([N+](=O)[O-])c1     inactive
 5                      CC(C)(C)C1CCC(=O)CC1     inactive
 6                            Clc1ccnc(Cl)n1     inactive
 7  COC(=O)C1=C(C)NC(C)=C(C(=O)OCCN2CCN(C(c3ccccc3)c3ccccc3)CC2)C1c1cccc([N+](=O)[O-])c1 (stereo not drawn)     inactive
 8                [Cl][Pt-2]([Cl])([Cl])[Cl]     inactive
 9         O=c1oc2cc(O)ccc2c2oc3cc(O)ccc3c12     inactive
10                          COC(=O)c1ccccc1C     inactive
11                   O=C(Oc1ccccc1)Oc1ccccc1     inactive
12  C#C[C@]1(O)CC[C@H]2[C@@H]3[C@H](C)CC4=C(CCC(=O)C4)[C@H]3CC[C@@]21C     inactive

====

Protocol notes: qHTS assay to identify small molecule agonists of the hypoxia (HIF-1) signaling pathway - cell viability counter screen (AID 1224844); further: nearly all actives have a fitted effect of over 50% in size
Condition description: HRE-bla ME-180 viability, CellTiter-Glo luminescence, 17 h; series mostly up to 76.8 µM
Description: National Center for Advancing Translational Sciences [NCATS] NIH Chemical Genomics Center [NCGC] U.S. Environmental Protection Agency [EPA] National Institutes of Environmental Health Sciences [NIEHS] National Toxicology Program [NTP] U.S. Food and Drug Administration [FDA] Hypoxia-inducible factor-1 (HIF-1) is the major hypoxia-regulated transcription factor that controls cellular responses to low oxygen concentration. […]
Results filed as inconclusive are left out. The source made the active and inactive calls. The call rests on the fitted dose curve.
Classes used: active, inactive

In [3]: df
Out[3]:
                                    compound  group_label
 0                                OCC(F)(F)F     inactive
 1    O=C1CCc2cc(OCCCCc3nnnn3C3CCCCC3)ccc2N1     inactive
 2                         CCCCCc1ccc(Cl)cc1     inactive
 3           Cc1cc(C(C)(C)C)cc(C)c1CC1=NCCN1     inactive
 4  CCCCC(CC)COC(=O)CCCCC(=O)OCc1ccccc1 (stereo not given)     inactive
 5             Nc1ccc(NCCO)c([N+](=O)[O-])c1     inactive
 6            O=C(O)Cc1ccccc1Nc1c(Cl)cccc1Cl     inactive
 7           O=C(c1ccc(O)c(O)c1)c1ccc(O)cc1O     inactive
 8  OCCN1CCN(CCCN2c3ccccc3Sc3ccc(C(F)(F)F)cc32)CC1       active
 9  CCN(CC)C(=O)c1cc(S(=O)(=O)Cc2ccccc2)c(N2CCC(c3ccccc3)CC2)cc1N(CC)CCN(C)C       active
10                       CC(C)CCCCCOC(=O)CCS     inactive
11     CCc1oc2ccccc2c1C(=O)c1cc(I)c(O)c(I)c1     inactive
12                                 OC/C=C/CO     inactive
13                        CC1=CCC(=C(C)C)CC1     inactive
14  Cc1cc(-c2ccc(N=Nc3cc(S(=O)(=O)O)c4ccccc4c3N)c(C)c2)ccc1N=Nc1cc(S(=O)(=O)O)c2ccccc2c1N     inactive
15                           Cc1ccc(O)c(N)c1       active
16                 CCCCNS(=O)(=O)c1ccc(C)cc1     inactive
17  CCOC(=O)c1ccc(C2CCC(NC[C@H](O)COc3ccc(O)c(NS(C)(=O)=O)c3)CC2)cc1 (stereo not given in full)     inactive
18                         Cc1ccc(C(=O)O)cc1     inactive
19     CN(C)Cc1cc(C(C)(C)C)c(O)c(C(C)(C)C)c1     inactive
20  COCCOc1cc2cc(C(=O)NC3CCN(C(C)C)CC3)n(CC(=O)Nc3ccc(Cl)cn3)c2cn1     inactive
21  CCOC(=O)Cn1cccc1-c1nc(-c2ccc(OC)cc2)c(-c2ccc(OC)cc2)s1     inactive
22  CC(CCc1ccccc1)NCC(O)c1ccc(O)c(C(N)=O)c1 (stereo not given)     inactive
23  Cc1c(C)c2c(c(C)c1O)CC[C@@](C)(CCC[C@H](C)CCC[C@H](C)CCCC(C)C)O2     inactive
24       CC(C)NC[C@@H](O)COc1ccc(CC(N)=O)cc1     inactive

====

Protocol notes: qHTS assay to identify small molecule agonists of H2AX - cell viability counter screen (AID 1224847); further: nearly all actives have a fitted effect of over 30% in size
Condition description: CHO-K1 viability, CellTiter-Glo luminescence, 3 h; series mostly up to 154 µM
Inconclusive results are not listed. Calls of active or inactive are those of the source. Calls follow the shape of the full dose curve.
Outcome codes: T for active, F for inactive

Compound	Group label
COC(=O)C1=C(C)NC(C)=C(C(=O)OCCN2CCN(C(c3ccccc3)c3ccccc3)CC2)C1c1cccc([N+](=O)[O-])c1 (stereo not given)	F
Cc1c(C)c2c(c(C)c1OC(=O)c1cccnc1)CC[C@@](C)(CCC[C@H](C)CCC[C@H](C)CCCC(C)C)O2	F
CC(C)(C)C1CCC(=O)CC1	F
Cc1cc(-c2ccc(N=Nc3cc(S(=O)(=O)O)c4ccccc4c3N)c(C)c2)ccc1N=Nc1cc(S(=O)(=O)O)c2ccccc2c1N	T
CCC(CC)(CC(=O)Nc1cccc(/C=C/c2nc(C3CCC3)cs2)c1)C(=O)O	F
CC(C)OC(=O)C(O)(CC(=O)O)CC(=O)O	F
COc1c(C)c2c(c(O)c1C/C=C(\C)CCC(=O)OCCN1CCOCC1)C(=O)OC2	F
O=C1NC(=O)[C@@H]2CC=CC[C@H]12	F
CCCNCCC	F
CCCCCCCC/C=C\CCCCCCCCN	F
Cc1nc(-c2ccc(Cl)cc2)oc1COC(C)(C)C(=O)O	F
O=S(=O)(O)c1ccc(Nc2nc(Nc3ccc(/C=C/c4ccc(Nc5nc(Nc6ccc(S(=O)(=O)O)cc6)nc(N(CCO)CCO)n5)cc4S(=O)(=O)O)c(S(=O)(=O)O)c3)nc(N(CCO)CCO)n2)cc1	F
CCCCOC(=O)CC	F
CCCCC(CC)COC(=O)CCCCC(=O)OCc1ccccc1 (stereo not given)	F
CCC(=O)C(=O)CC	F
O=C1OC2(c3ccc(O)cc3Oc3cc(O)ccc32)c2ccc(N=C=S)cc21	F
FC(F)(F)c1cccc(Cl)c1	F
CCN(CC)C(=O)c1cc(S(=O)(=O)Cc2ccccc2)c(N2CCC(c3ccccc3)CC2)cc1N(CC)CCN(C)C	T
O=C(/C=C/c1ccccc1)OC/C=C/c1ccccc1	F
CCCCCc1ccc(Cl)cc1	F
Cc1cccc(C)c1NC(=O)c1ccc(N)cc1	F
CCCCCCCCCCCC(=O)OCC(C)OC(=O)CCCCC(=O)O (stereo not given)	F
CCC(C)n1ncn(-c2ccc(N3CCN(c4ccc(OC[C@H]5CO[C@](Cn6cncn6)(c6ccc(Cl)cc6Cl)O5)cc4)CC3)cc2)c1=O (stereo not given in full)	F
NC(=S)NC(N)=S	F
S=c1nccc[nH]1	F
